target: recombinant homotrimeric HA, A/Anhui/1/05 H5N1 (Influenza A virus A/Anhui/1/05 (H5N1)); test: trimeric HA microarray, transfection set 2; settings: remark: other sources report otherwise
measurement.type: Trimeric HA Binding RLU (RLU)
One number for each entry, in RLU.

See these solved cases before continuing.
TCN-528 (5087_P17) (antibody, V domains shown) VH: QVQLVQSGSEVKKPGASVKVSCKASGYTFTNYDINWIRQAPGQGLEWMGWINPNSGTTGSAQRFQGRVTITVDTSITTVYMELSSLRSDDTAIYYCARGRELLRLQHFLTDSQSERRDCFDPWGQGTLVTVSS VL: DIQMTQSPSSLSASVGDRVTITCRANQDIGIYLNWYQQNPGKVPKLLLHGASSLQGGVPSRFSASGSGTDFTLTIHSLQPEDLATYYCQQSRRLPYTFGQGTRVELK    21200
TCN-563 (5237_B21) (antibody, V domains shown) VH: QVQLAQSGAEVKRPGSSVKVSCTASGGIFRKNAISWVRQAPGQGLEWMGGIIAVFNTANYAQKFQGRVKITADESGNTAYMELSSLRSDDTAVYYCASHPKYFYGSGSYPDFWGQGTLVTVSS VL: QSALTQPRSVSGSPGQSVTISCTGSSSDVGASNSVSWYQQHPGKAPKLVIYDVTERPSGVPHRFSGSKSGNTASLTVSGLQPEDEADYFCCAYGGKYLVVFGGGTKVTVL    1570
TCN-504 (3251_K17) (antibody, V domains shown) VH: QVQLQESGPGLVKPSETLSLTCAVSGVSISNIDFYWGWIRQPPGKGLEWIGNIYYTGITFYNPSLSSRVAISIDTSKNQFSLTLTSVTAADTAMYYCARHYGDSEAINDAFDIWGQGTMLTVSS VL: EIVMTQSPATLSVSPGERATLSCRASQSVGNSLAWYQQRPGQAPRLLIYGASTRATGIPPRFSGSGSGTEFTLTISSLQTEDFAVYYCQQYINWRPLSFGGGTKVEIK    31000

Here is another binder to look at.
Looking up TCN-527 (5086_C06) (antibody, V domains shown) VH: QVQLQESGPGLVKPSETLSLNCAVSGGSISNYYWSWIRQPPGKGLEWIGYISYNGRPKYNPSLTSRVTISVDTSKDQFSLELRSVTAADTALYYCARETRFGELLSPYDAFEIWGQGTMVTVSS VL: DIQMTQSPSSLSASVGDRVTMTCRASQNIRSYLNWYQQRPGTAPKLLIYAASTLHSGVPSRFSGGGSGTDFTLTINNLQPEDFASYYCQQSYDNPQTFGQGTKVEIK , I found its Trimeric HA Binding RLU recorded as 15200
